B1: Membrane-associated guanylate kinase, WW and PDZ domain-containing protein 2, residues 296 to 340; numbered along this chain, Q86UL8 (parent)
chain: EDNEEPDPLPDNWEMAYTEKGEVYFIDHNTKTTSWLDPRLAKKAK

variants of: B1; assay: abundance fitness (aPCA) (normalised: wild type 0, dead -1); higher = more abundant; growth selection in yeast, the domain comes from the species named; conditions: Homo sapiens
Here the recorded abundance fitness is given for each entry.

| mutant | abundance fitness |
| --- | --- |
| A16G | -0.109 |
| A44W | -0.118 |
| T30D | -0.324 |
| D11R | 0.032 |
| T33Q | -0.637 |
| Y17S | -0.03 |
| P38V | -0.979 |
| A44L | -0.111 |
| R39V | -0.52 |
| T18W | -0.725 |
| E19G | -0.107 |
| P10V | -0.54 |
| D2P | -0.01 |
| N29G | -0.019 |
| M15P | -0.308 |
| E14T | -0.162 |
| P6C | -0.081 |
| M15L | -0.026 |
| S34E | -0.826 |
| Y24W | -0.568 |
| L36P | -0.776 |
| L40T | 0.012 |
| M15W | -0.198 |
| E19Q | 0.02 |
| P10R | -0.532 |
| D37H | -0.623 |
| T18G | -0.354 |
| E14R | -0.415 |
| E4L | 0.03 |
| N12R | -0.044 |
| A16R | -0.127 |
| K31M | -0.008 |
| T18F | -0.953 |
| N3L | 0.009 |
| Y17C | 0.004 |
| A16F | -0.709 |
| K31G | -0.074 |
| V23E | -0.038 |
| T33N | -0.341 |
| E19P | -0.013 |
| E14L | -0.561 |
| A44R | -0.076 |
| L36H | -0.298 |
| T33S | -0.236 |
| K31Q | 0.013 |
| L40V | 0.043 |
